Hey, just so you know, these numbers are from PubChem BioAssay (NCI).

Below, each entry is listed with its recorded TGI.
- Test system: NCI-H23 lung
- METHOD SUMMARY: NCI tumour cell line growth inhibition, 48 h

Below are worked cases with known answers.
1) CCCCCC(=O)N1c2ccccc2NC2=C(C(=O)CC(c3ccc(OC)c(OC)c3)C2)C1c1ccc(C(F)(F)F)cc1 (centres undefined) | > 100 µM
2) N#CCCc1nc2ccc(Br)cc2c(=O)n1-c1ccc(O)c([N+](=O)[O-])c1 | 42 µM
3) CCOC(=O)CNC(=O)C(CSC(=O)N(O)c1ccc(Br)cc1)NC(=O)CCC(N)C(=O)OCC (centres undefined) | > 50 µM
4) CCCOC(=O)c1cc(C(=CCC[C@H]2CC[C@@]3(C)[C@@H](CC[C@@H]4[C@@H]3CC[C@]3(C)[C@@H](C(C)CCCC(C)C)CC[C@@H]43)C2)c2cc(Cl)c(O)c(C(=O)OCCC)c2)cc(Cl)c1O (some centres undefined) | > 50 µM
5) CCn1c(=O)c2c(=O)[nH][nH]c2c2ccccc21 | > 100 µM
6) CCNC(=O)C(O)C1(O)CCC2[C@@H]3CCC4=CC(=O)C=C[C@]4(C)C3[C@@H](O)C[C@@]21C (some centres undefined) | > 100 µM

Prompt: Return value of TGI for input CC1CCCc2c(-c3ccc(Cl)cc3)nc(N)c(C#N)c21 (centres undefined) , no commentary.
Response: 99.4 µM

Prompt: Return value of TGI for input COC(=O)/C=C/c1cc(OC)c2c(c1)C(C(=O)OC)C(c1ccc(OC)c(OC)c1)O2 (centres undefined) , no commentary.
Response: > 100 µM

Prompt: Return value of TGI for input COc1ccc(NC=O)c(C(O)CCNC(C)=O)c1 (centres undefined) , no commentary.
Response: > 100 µM
